Consider the following compounds and their measured IC50 readings.
target: HCV polymerase (NS5B) type 1b (Hepatitis C virus genotype 1b, UniProt P26663); construct: a region encoding NS5B (J Virol 1991 March, 65(3), 1105-13, 544 amino acids after deletion of 47 amino acids on the C-terminal); 6xHis (C); made in house; host or cells: Escherichia coli; test: Assay of enzyme (HCV polymerase) inhibitory activity, type 1b enzyme; type: biochemical, HCV BK strain (type 1b); settings: HCV polymerase inhibitory activity (IC50), 1b, type 1b enzyme 0.5 μg/ml, 25° C., 60 min
Sequence (P26663 2420-2963): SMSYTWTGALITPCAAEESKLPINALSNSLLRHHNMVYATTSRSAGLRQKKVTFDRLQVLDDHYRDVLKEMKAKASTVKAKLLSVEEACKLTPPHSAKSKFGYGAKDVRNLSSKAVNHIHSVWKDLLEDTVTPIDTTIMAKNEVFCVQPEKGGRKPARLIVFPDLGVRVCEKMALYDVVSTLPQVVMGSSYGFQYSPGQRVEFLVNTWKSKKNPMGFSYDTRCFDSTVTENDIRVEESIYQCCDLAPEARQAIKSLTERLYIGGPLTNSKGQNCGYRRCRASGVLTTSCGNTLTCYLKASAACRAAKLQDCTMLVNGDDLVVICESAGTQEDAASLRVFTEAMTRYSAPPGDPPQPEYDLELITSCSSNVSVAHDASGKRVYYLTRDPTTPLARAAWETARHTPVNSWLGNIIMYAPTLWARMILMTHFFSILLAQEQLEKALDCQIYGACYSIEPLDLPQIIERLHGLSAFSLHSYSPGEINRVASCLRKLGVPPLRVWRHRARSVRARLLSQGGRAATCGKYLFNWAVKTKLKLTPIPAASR
Counter-ions that a name gives are not always drawn.

>  <COMPOUND>
CC(=O)N1CCN(S(=O)(=O)c2ccc(N3CCOCC3)nc2)C(C(=O)NCc2ccc(C(F)(F)F)cc2)C1 (stereo not shown) [Example 70, hydrochloride]

>  <IC50>
> 1 µM

$$$$
>  <COMPOUND>
CCCc1ccc(CNC(=O)[C@H]2CN(c3cnc(C(=O)OC)c(N)n3)CCN2S(=O)(=O)c2ccc(OC(F)(F)F)cc2)cc1

>  <IC50>
< 0.1 µM

$$$$
>  <COMPOUND>
CCC(F)(F)c1ccc(CNC(=O)[C@H]2CN(C(=O)c3cc(C)on3)CCN2S(=O)(=O)c2ccc(OC(F)(F)F)cc2)cc1

>  <IC50>
0.1 to 1 µM

$$$$
>  <COMPOUND>
CC(=O)N1CCN(S(=O)(=O)c2ccc(-c3ccc(Cl)cc3)cc2)C(C(=O)NCc2ccc(C(F)(F)F)cc2)C1 (stereo not shown)

>  <IC50>
> 1 µM

$$$$
>  <COMPOUND>
CCCc1ccc(CNC(=O)[C@H]2CN(c3nc(C)c(CN(C)C)s3)CCN2S(=O)(=O)c2ccc(OC(F)(F)F)cc2)cc1

>  <IC50>
< 0.1 µM

$$$$
>  <COMPOUND>
CC(C)c1ccc(CNC(=O)[C@H]2CN(C(=O)Nc3ccnc(C(=O)O)c3)CCN2S(=O)(=O)c2ccc(C(F)(F)F)cc2)cc1 [Example 314, hydrochloride]

>  <IC50>
0.1 to 1 µM

$$$$
>  <COMPOUND>
CCOC(=O)c1sc(N2CCN(S(=O)(=O)c3ccc(OC(F)(F)F)cc3)[C@@H](C(=O)NCc3ccc(C(C)(C)C)cc3)C2)nc1N

>  <IC50>
0.1 to 1 µM

$$$$
>  <COMPOUND>
CC(=O)N1CCN(S(=O)(=O)c2ccc(C(C)C)cc2)C(C(=O)NCc2cccc(OC(F)(F)F)c2)C1 (stereo not shown)

>  <IC50>
> 1 µM

$$$$
>  <COMPOUND>
COC(=O)c1cccc(NC(=O)N2CCN(S(=O)(=O)c3ccc(C(F)(F)F)cc3)[C@@H](C(=O)NCc3ccc(C(C)C)cc3)C2)c1

>  <IC50>
0.1 to 1 µM

$$$$
>  <COMPOUND>
CC(=O)N1CCN(S(=O)(=O)c2ccc(C(C)C)cc2)C(C(=O)NCc2ccc(C(C)(C)C)cc2)C1 (stereo not shown)

>  <IC50>
0.1 to 1 µM

$$$$
>  <COMPOUND>
CCCc1ccc(CNC(=O)[C@H]2CN(C(C)=O)CCN2S(=O)(=O)c2ccc(C(C)C)cc2)c(C)c1

>  <IC50>
< 0.1 µM

$$$$
>  <COMPOUND>
CCCc1ccc(CNC(=O)[C@H]2CN(c3nc(C)c(C(=O)O)s3)CCN2S(=O)(=O)c2ccc(C(F)(F)F)cc2)cc1

>  <IC50>
< 0.1 µM

$$$$
>  <COMPOUND>
CCC(F)(F)c1ccc(CNC(=O)[C@H]2CN(C(=O)Cn3nnc(-c4ccccc4)n3)CCN2S(=O)(=O)c2ccc(OC(F)(F)F)cc2)cc1

>  <IC50>
< 0.1 µM

$$$$
>  <COMPOUND>
CC(C)(C)c1ccc(CNC(=O)[C@H]2CN(c3nc(CO)c(C(=O)O)s3)CCN2S(=O)(=O)c2ccc(OC(F)(F)F)cc2)cc1

>  <IC50>
0.1 to 1 µM

$$$$
>  <COMPOUND>
COC(=O)c1cnc(N2CCN(S(=O)(=O)c3ccc(C(F)(F)F)cc3)[C@@H](C(=O)NCc3ccc(C(C)C)cc3)C2)s1

>  <IC50>
< 0.1 µM

$$$$
>  <COMPOUND>
CCC(F)(F)c1ccc(CNC(=O)[C@H]2CN(C(=O)Cn3nnc(C)n3)CCN2S(=O)(=O)c2ccc(OC(F)(F)F)cc2)cc1

>  <IC50>
< 0.1 µM

$$$$
>  <COMPOUND>
CC(C)c1ccc(CNC(=O)[C@H]2CN(c3cnc(C(=O)O)cn3)CCN2S(=O)(=O)c2ccc(OC(F)(F)F)cc2)cn1

>  <IC50>
< 0.1 µM

$$$$
>  <COMPOUND>
CC(C)c1ccc(CNC(=O)[C@H]2CN(C(=O)Cn3cnnn3)CCN2S(=O)(=O)c2ccc(C(F)(F)F)cc2)cc1

>  <IC50>
< 0.1 µM

$$$$
>  <COMPOUND>
COCc1ccc(CNC(=O)[C@H]2CN(c3cnc4cncnc4n3)CCN2S(=O)(=O)c2ccc(OC(F)(F)F)cc2)cc1

>  <IC50>
< 0.1 µM

$$$$
>  <COMPOUND>
CC(=O)N1CCN(S(=O)(=O)c2ccc(C(C)C)cc2)C(C(=O)NCc2ccc(OC(F)(F)F)cc2)C1 (stereo not shown)

>  <IC50>
0.1 to 1 µM

$$$$
>  <COMPOUND>
CC(C)(C)c1ccc(CNC(=O)[C@H]2CN(c3cnc4cncnc4n3)CCN2S(=O)(=O)c2ccc(OC(F)(F)F)cc2)cc1

>  <IC50>
< 0.1 µM

$$$$
>  <COMPOUND>
CC(=O)N1CCN(S(=O)(=O)c2ccc(OC(F)(F)F)cc2)[C@@H](C(=O)NCc2ccc(C(C)C)cc2)C1

>  <IC50>
< 0.1 µM

$$$$
>  <COMPOUND>
Cc1nc(N2CCN(S(=O)(=O)c3ccc(C(F)(F)F)cc3)[C@@H](C(=O)NCc3ccc(C(C)C)cc3)C2)sc1C(=O)NS(C)(=O)=O

>  <IC50>
< 0.1 µM

$$$$
>  <COMPOUND>
Cc1nc(N2CCN(S(=O)(=O)c3ccc(C(F)(F)F)cc3)[C@@H](C(=O)NCc3ccc(C(C)C)cc3)C2)c(C)nc1C(=O)O

>  <IC50>
> 1 µM

$$$$
>  <COMPOUND>
CCCc1ccc(CNC(=O)[C@H]2CN(c3cnccn3)CCN2S(=O)(=O)c2ccc(OC(F)(F)F)cc2)cc1

>  <IC50>
< 0.1 µM

$$$$
